experiment: Mouse PK, Balb/c; settings: Balb/c, mouse, plasma, iv, 1 mg/kg
endpoint: half-life (min)
Express it in min; write the number only.

Q. half-life lookup needed for CC1(C)Cn2nc(-c3ccc4cc(OC5CC5)ccc4c3)c(C(N)=O)c2NC1O (stereo not shown) [M2] , thanks.
A. 106

====

assay: Liver microsome stability; conditions: human, pooled liver microsomes
endpoint: microsomal CLint

Q. microsomal CLint lookup needed for CC1(C)Cn2nc(-c3ccc4cc(OC5CC5)ccc4c3)c(C(N)=O)c2NC1O (stereo not shown) , thanks.
A. < 23.1 µL/min/mg

====

# key: entry, value: pEC50
tested on: C. hominis TU502 isolate; test: Calibr high-content imaging Cryptosporidium panel; type: cell-based, Cryptosporidium hominis; conditions: Cryptosporidium hominis, Replicate 1; read-out: TU502 C. hominis Count EC50
// returns pEC50 (minus log10 of molar concentration), number only

1) CC(=O)Oc1ccccc1C(=O)Nc1ncc([N+](=O)[O-])s1 [Nitazoxanide]; 5.09

Q. pEC50 lookup needed for `CC(C)/N=c1\cc2n(-c3ccc(Cl)cc3)c3ccccc3nc-2cc1Nc1ccc(Cl)cc1` , thanks.
A. 6.29

====

test: Plasma protein binding, equilibrium dialysis; conditions: dog
endpoint: fraction unbound
Output: the number by itself.

Q. fraction unbound lookup needed for CC1(C)Cn2nc(-c3ccc4cc(OC5CC5)ccc4c3)c(C(N)=O)c2NC1O (stereo not shown) , thanks.
A. 0.1

====

Target: CYP2C8 (Homo sapiens, UniProt P10632)
Sequence (P10632 1-490): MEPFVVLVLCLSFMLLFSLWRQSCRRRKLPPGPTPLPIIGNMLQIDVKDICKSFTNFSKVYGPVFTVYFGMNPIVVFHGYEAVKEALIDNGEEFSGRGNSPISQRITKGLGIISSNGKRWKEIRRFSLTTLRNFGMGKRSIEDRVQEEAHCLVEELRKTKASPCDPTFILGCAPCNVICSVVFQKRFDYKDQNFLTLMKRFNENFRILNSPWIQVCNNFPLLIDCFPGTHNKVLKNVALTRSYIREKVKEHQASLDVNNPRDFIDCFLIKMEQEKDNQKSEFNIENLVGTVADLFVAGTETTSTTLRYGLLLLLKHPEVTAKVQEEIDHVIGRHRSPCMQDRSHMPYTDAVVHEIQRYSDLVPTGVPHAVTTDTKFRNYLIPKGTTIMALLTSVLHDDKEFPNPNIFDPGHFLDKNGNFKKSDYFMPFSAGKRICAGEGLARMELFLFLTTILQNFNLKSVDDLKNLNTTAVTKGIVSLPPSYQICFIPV
Assay: in vitro
Conditions: recombinant CYP2C8 supersomes
endpoint: CLint scaled

Q. Item: CC1(C)Cn2nc(-c3ccc4cc(OC5CC5)ccc4c3)c(C(N)=O)c2NC1O (stereo not shown) [M2] Test system: CYP2C8 (Homo sapiens, UniProt P10632) Read-out: CLint scaled Value: ?
A. < 1.78 mL/min/kg

====

experiment: 72H HEK293T Cytotoxicity; assay type: cell-based; details: human, HEK293T cells
endpoint: CC50 at 72 h (nM)
Express it in nM; write the number only.

Consider the following illustrative entries.
1) COc1ccc(C[C@H](N)C(=O)N[C@H]2[C@@H](O)[C@H](n3cnc4c(N(C)C)ncnc43)O[C@@H]2CO)cc1; 319
2) CC(=O)Oc1ccccc1C(=O)Nc1ncc([N+](=O)[O-])s1 [Nitazoxanide]; 40300

Q. CC50 at 72 h lookup needed for `O=c1[nH]c(=O)n([C@H]2C[C@H](O)[C@@H](CO)O2)cc1F` , thanks.
A. 7.23
